Test system: CAMK1D;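 also: KINOMEscan kinase panel screen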
condition-label: concentration: 1 μM, replicates: in singlicate; n = 1
Binary label based on %Inh with cut-off 5%: below gives true, not below gives false.

O=C(Nc1cccc(-c2nn3ccccc3c2-c2ccnc(Nc3cccc(F)c3)n2)c1)c1c(F)ccc(F)c1Cl ... false
COC(=O)Nc1nc2ccc(Oc3ccc(NC(=O)Nc4cc(C(F)(F)F)ccc4F)cc3)cc2n1C.Cl ... true
COc1cccc(C2=C(Nc3ccc(Cl)c(C(=O)O)c3)C(=O)NC2=O)c1 ... true
CN1CCN(Cc2cccc(-c3ccc4c(Nc5ccc(Oc6ccccc6)cc5)ccnc4c3)c2)CC1 ... false
COc1ccc(-c2coc3ccc(-c4nnc(SCc5ccc(OC)c(C(F)(F)F)c5)o4)cc23)cc1 ... false
Cc1cccc(NC(=O)Nc2ccc(Oc3ncnc4ccn(C)c34)cc2)c1 ... false
CN(C)Cc1ccc(-c2ccc3c(Nc4ccc(Oc5ccccn5)cc4)ccnc3c2)o1 ... true
CCc1ccc(-c2ccc3c(c2)-c2c(cnn2C)S(=O)(=O)N3C)cc1 ... true
COC(=O)Nc1nc2cc(Oc3ccc(NC(=O)Nc4cc(C(F)(F)F)ccc4F)cn3)ccc2[nH]1.Cl.Cl ... false
C[C@@H](Oc1cc(-n2cnc3cc(-c4ccnc(NCCS(C)(=O)=O)c4)ccc32)sc1C(N)=O)c1ccccc1Cl ... false

### Prompt Please check: %Inh for COc1ccc(Nc2nccc(N3CCC(NC(=O)Nc4cccc(OC)c4)C3)n2)cc1 (stereo not drawn) , strictly under 5% or not?
### Response true

### Prompt // repeat for "COc1cccc(-c2ccc3c(NC(=O)C4CC4)n[nH]c3n2)c1" and report
### Response true

### Prompt // repeat for "COc1ccc(Nc2nccc(NCCNC(=O)c3cc4ccccc4s3)n2)cc1" and report
### Response false
